Target: Y106F N-His6-FhuD2 (Staphylococcus aureus, UniProt Q7BGA5, Y130F)
Sequence (Q7BGA5 25-302 Y130F): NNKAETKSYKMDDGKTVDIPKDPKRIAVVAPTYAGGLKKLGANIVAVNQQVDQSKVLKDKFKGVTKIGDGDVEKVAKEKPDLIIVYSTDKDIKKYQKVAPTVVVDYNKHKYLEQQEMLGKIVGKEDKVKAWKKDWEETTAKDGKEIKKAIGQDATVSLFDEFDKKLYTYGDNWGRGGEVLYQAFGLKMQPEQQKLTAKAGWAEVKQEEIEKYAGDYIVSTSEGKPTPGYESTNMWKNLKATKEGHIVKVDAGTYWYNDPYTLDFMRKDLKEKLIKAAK
Assay: Intrinsic Trp fluorescence quenching binding assay, FhuD2 mutant Y106F
Design: species or system S. aureus
Conditions: app Kd, FhuD2 variant Y106F
READOUT: Kd (nM)
Write down the numeric answer in nM and omit the unit.

Request: Which Kd value belongs to CC(=O)N(O)CCCCCNC(=O)CCC(=O)N(O)CCCCCNC(=O)CCC(=O)N(O)CCCCCN [DFOB, desferrioxamine B] ?
Response: 80

* * *

Target: R175A N-His6-FhuD2 (Staphylococcus aureus, UniProt Q7BGA5, R199A)
Assay: Intrinsic Trp fluorescence quenching binding assay, FhuD2 mutant R175A
Parameters: species or system S. aureus
Details: app Kd, FhuD2 variant R175A
READOUT: pKd
// pKd here means minus log10 of the molar concentration (mol/L)

Request: Which pKd value belongs to CC(=O)N(O)CCCCCNC(=O)CCC(=O)N(O)CCCCCNC(=O)CCC(=O)N(O)CCCCCN ?
Response: 7.40

* * *

Molecular target: N-His6-YxeB (Bacillus subtilis, UniProt P54941)
Sequence (P54941 21-321): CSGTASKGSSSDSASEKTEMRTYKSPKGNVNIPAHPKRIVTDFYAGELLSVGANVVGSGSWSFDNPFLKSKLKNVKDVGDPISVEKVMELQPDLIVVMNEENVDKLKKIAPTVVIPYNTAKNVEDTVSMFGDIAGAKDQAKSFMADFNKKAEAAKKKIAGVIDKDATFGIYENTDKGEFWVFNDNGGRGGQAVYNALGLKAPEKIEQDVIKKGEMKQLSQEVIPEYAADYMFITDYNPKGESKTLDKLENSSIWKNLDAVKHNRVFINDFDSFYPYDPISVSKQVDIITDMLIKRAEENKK
READOUT: Kd (nM)
Write down the numeric answer in nM and omit the unit.

Request: Which Kd value belongs to CC(=O)N(O)CCCCCNC(=O)CCC(=O)N(O)CCCCCNC(=O)CCC(=O)N(O)CCCCCN ?
Response: 30

* * *

Target: Y169F N-His6-FhuD2 (Staphylococcus aureus, UniProt Q7BGA5, Y193F)
Experiment: Intrinsic Trp fluorescence quenching binding assay, FhuD2 mutant Y169F
Design: species or system S. aureus
Settings: app Kd, FhuD2 variant Y169F
READOUT: pKd
// pKd here means minus log10 of the molar concentration (mol/L)

Request: Which pKd value belongs to CC(=O)N(O)CCCCCNC(=O)CCC(=O)N(O)CCCCCNC(=O)CCC(=O)N(O)CCCCCN [DFOB, desferrioxamine B] ?
Response: 7.15

* * *

Molecular target: Y256F N-His6-FhuD2 (Staphylococcus aureus, UniProt Q7BGA5, Y280F)
Assay: Intrinsic Trp fluorescence quenching binding assay, FhuD2 mutant Y256F
Set-up: species or system S. aureus
Conditions: read-out: app Kd; FhuD2 variant Y256F
READOUT: Kd (nM)
Write down the numeric answer in nM and omit the unit.

Request: Look up Kd with Y256F N-His6-FhuD2 (Staphylococcus aureus, UniProt Q7BGA5, Y280F) for this compound: CC(=O)N([O-])CCCCCNC(=O)CCC(=O)N([O-])CCCCCNC(=O)CCC(=O)N([O-])CCCCCN.[Fe+3]
Response: 60

* * *

Molecular target: W173A N-His6-FhuD2 (Staphylococcus aureus, UniProt Q7BGA5, W197A)
Experiment: Intrinsic Trp fluorescence quenching binding assay, FhuD2 mutant W173A
Parameters: species or system S. aureus
Settings: app Kd, FhuD2 variant W173A
READOUT: Kd
Remember to put the unit after the number in your answer.

Request: Look up Kd with W173A N-His6-FhuD2 (Staphylococcus aureus, UniProt Q7BGA5, W197A) for this molecule: CC(=O)N(O)CCCCCNC(=O)CCC(=O)N(O)CCCCCNC(=O)CCC(=O)N(O)CCCCCN
Response: 100 nM

* * *

Property: Kd; scope: individual compounds
Target: Y106F (Staphylococcus aureus, UniProt Q7BGA5, Y130F)
Experiment: Intrinsic Trp fluorescence quenching
Settings: read-out: app Kd; SD, n = 2
Write down the numeric answer in nM and omit the unit.

Request: Which Kd value belongs to CC(=O)N([O-])CCCCCNC(=O)CCC(=O)N([O-])CCCCCNC(=O)CCC(=O)N([O-])CCCCCN.[Fe+3] [FOB, ferrioxamine B] ?
Response: 40

Request: Do the same for O=C1CCC(=O)N(O)CCCCCNC(=O)CCC(=O)N(O)CCCCCNC(=O)CCC(=O)N(O)CCCCCN1.[Fe+3] [FOE, ferrioxamine E] please
Response: 80
